# Tested on: Proteus vulgaris IAM-1025
metric-name: MIC (mg/L)
Respond numerically; units are mg/L and should not be typed.

Worked cases, MIC given:
# molecule, MIC, mg/L
measured = [
    ("CO/N=C(\\C(=O)NC1C(=O)N2C(C(=O)O)=C(CSc3nnnn3C)CSC12)c1nc(N)sc1Br (centres unmarked)", 12.5),
    ("CO/N=C(\\C(=O)NC1C(=O)N2C(C(=O)O)=C(COC(=O)c3ccccc3)CSC12)c1nc(N)sc1Br (centres unmarked)", 12.5),
    ("CO/N=C(\\C(=O)NC1C(=O)N2C(C(=O)O)=C(CSc3nnc(C)s3)CSC12)c1nc(N)sc1Br (centres unmarked)", 12.5),
]

Query the reported MIC for Proteus vulgaris IAM-1025; item: CO/N=C(\C(=O)NC1C(=O)N2C(C(=O)O)=C(CSc3nncs3)CSC12)c1nc(N)sc1Br (centres unmarked)
6.25

Lookup CO/N=C(\C(=O)NC1C(=O)N2C(C(=O)O)=C(CSc3nncs3)CSC12)c1nc(N)sc1Cl (centres unmarked)
1.56

Data provenance is patent US4729991A.
